# PROTOCOL_DETAILS: qHTS assay to identify small molecule antagonists of the androgen receptor (AR) signaling pathway using the MDA cell line in the presence of 0.5 nM R1881 - cell viability counter screen (AID 1259242); note: nearly all actives have a fitted effect of over 45% in size
# MEASUREMENT_CONDITIONS: MDA-kb2 viability, CellTiter-Fluor protease fluorescence, 16 h; series mostly up to 92.4 µM
Records with an inconclusive call do not appear. Calls of active or inactive are those of the source. Calls come from the whole dose curve; as a rule, active = well fitted cell-killing curve with a large enough effect in the repeat runs; inconclusive = weak or mixed curves, or effect the other way; inactive = flat fitted curve, though single readings scatter.
Your reply should match one of these outcome classes. True (active), False (inactive)

As a guide, the following entries are already answered.
O=C(CCl)c1ccc(Cl)cc1Cl = False
O=C(OC1CCCCC1)c1ccccc1C(=O)OC1CCCCC1 = False
NNC(=O)c1cccnc1 = False
C[N+](C)(C)CCCl = False
O=[N+]([O-])C(Br)(CO)CO = False
CC(C)=CCOc1c2occc2cc2ccc(=O)oc12 = False
COC(C)(C)CCC[C@H](C)C/C=C/C(C)=C/C(=O)OC(C)C = False
CCCCC(CC)COP(=O)(Oc1ccccc1)Oc1ccccc1 (centres undefined) = False

Next item in the queue.
Please indicate how the test categorized CCC(COC(=O)c1cc(OC)c(OC)c(OC)c1)(c1ccccc1)N(C)C (centres undefined) .
False
